B1: Red1 residues 288-345 (Pla1 interaction region), purified [S. pombe] / C-terminal RRM domain of Pla1 (Pla1RRM, residues 352-566), purified [S. pombe] (parent)
chain 1: ISLPLLKQDDWLSSSKPFGSSTPNVVIEFDSDDDGDDFSNSKIEQSNLEKPPSNSENG
chain 2: DFFHRYKHYLTITAAAKTAEAQLKWAGLVESKLRHLVTRLELVDAIALAHPFNKGFDKVYNCSSEEEAQQVASGVTLEVAYESTDHEKLANDTVNEEKADNTESKADGSENGEKQIFPVYTTTCYIGLELEKKKGHPIKRLDISWPTQEFYELCKKWDKYDDTLMNVFIKNTKNTALPDEVFEPGEERPKATKKRSTADTAHSTEQLKRQKVSTA

Variants of: B1
Assay: ITC
Conditions: with C-terminal RRM domain of Pla1 (Pla1RRM, residues 352-566)
measurementName: pKd
Answer as the number alone; pKd is minus log10 of concentration in mol/L.

INPUT: Can you look up the measured pKd of chain 1 V26R for me?
OUTPUT: 4.75
